Source listed as PubChem BioAssay (NCI).

# System: HCC-2998 colon
# ASSAY NAME: NCI tumour cell line growth inhibition, 48 h
ENDPOINT NAME: TGI (µM)

compound="COC1/C(=C\\c2ccccc2I)c2ccccc2N1C(C)=O (stereo unspecified)" endpoint_name=TGI unit_text=µM limit_sign== test_result=33.9
compound=COc1cc(/C=C2\C(=O)Nc3ccccc32)cc(OC)c1O endpoint_name=TGI unit_text=µM limit_sign== test_result=24.5
compound=N#C/C(=C\c1ccc(Br)cc1)n1nnc2c(F)cccc21 endpoint_name=TGI unit_text=µM limit_sign== test_result=3.18
compound="O=[N+]([O-])c1ccc(C2CC(c3ccc(NCc4nc5ccccc5[nH]4)cc3)=NO2)cc1 (stereo unspecified)" endpoint_name=TGI unit_text=µM limit_sign=> test_result=100
compound=O=[N+]([O-])c1nccn1COCCO endpoint_name=TGI unit_text=µM limit_sign=> test_result=100
compound="CC1CC2(OC2C)C(=O)OC2CCN(C)C/C=C(/COC(=O)C1(C)O)C2=O (stereo unspecified)" endpoint_name=TGI unit_text=µM limit_sign=> test_result=100
compound=COc1ccc(-c2nc(Sc3c([N+](=O)[O-])ncn3C)n[nH]2)cc1 endpoint_name=TGI unit_text=µM limit_sign== test_result=30.2
compound=O=C(Cc1ccc(F)cc1)NC1=C(Cl)C(=O)c2ccccc2C1=O endpoint_name=TGI unit_text=µM limit_sign== test_result=16
compound="OC(COc1cccc2ccccc12)CN1CCOCC1 (stereo unspecified)" endpoint_name=TGI unit_text=µM limit_sign=> test_result=100
compound=Cc1[nH]n(-c2ncc(C(=O)O)c(=O)[nH]2)c(=O)c1CCO endpoint_name=TGI unit_text=µM limit_sign=> test_result=100
compound=Nc1nc2cc(O)ccc2n2cc3c(F)cccc3c12 endpoint_name=TGI unit_text=µM limit_sign=> test_result=100
